Hello, the source for this data is the supplement of paper PMC9694430, in case you need it.

# Lookup of reported thermal shift delta Tm keyed by entry
# Test system: LOC_OS03G04050-cb001
# test_method_notes: thermal shift delta Tm vs DMSO control; higher = stronger stabilization (binding);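 further: purified Escherichia coli-expressed rice kinase domain construct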
# condition_context: 12.5 µM; protein concentration 2 µM
Give the quantity in °C, number only.

Below: 6 molecules and their reported thermal shift delta Tm.
Cc1cnc(Nc2ccc(OCCN3CCCC3)cc2)nc1Nc1cccc(S(=O)(=O)NC(C)(C)C)c1; 0.72
C[C@@H](Oc1cc(-c2cnn(C3CCNCC3)c2)cnc1N)c1c(Cl)ccc(F)c1Cl; 0.35
NC1(Cc2ccc(Cl)cc2)CCN(c2ncnc3[nH]ccc23)CC1; 0.46
C[C@H](CN(C)C)Oc1nc(Nc2cc3cccc(Cl)c3cn2)cnc1C#N; 0.34
COCCNCc1ccc(-c2cc3nccc(Oc4ccc(NC(=O)C5(C(=O)Nc6ccc(F)cc6)CC5)cc4F)c3s2)nc1; 0.75
COc1ccc(/C=C/C(=O)C2(C(=O)/C=C/c3ccc(OC)c(OC)c3)CCCCC2)cc1OC; 0.85

Exercise: I'd like to know its thermal shift delta Tm. The molecule in question is "CC(C)(C)Cn1c(N)nc2ccc(-c3[nH]c(C(C)(C)C)nc3-c3ccc(F)cc3)nc21"
Solution: 0.52

Exercise: Data request, read-out thermal shift delta Tm, for "CC(C)n1nc(-c2cc3cc(O)ccc3[nH]2)c2c(N)ncnc21"
Solution: 0.29

###

# Tested on: LOC_OS01G52050-cb004
# Sequence (as listed by the source): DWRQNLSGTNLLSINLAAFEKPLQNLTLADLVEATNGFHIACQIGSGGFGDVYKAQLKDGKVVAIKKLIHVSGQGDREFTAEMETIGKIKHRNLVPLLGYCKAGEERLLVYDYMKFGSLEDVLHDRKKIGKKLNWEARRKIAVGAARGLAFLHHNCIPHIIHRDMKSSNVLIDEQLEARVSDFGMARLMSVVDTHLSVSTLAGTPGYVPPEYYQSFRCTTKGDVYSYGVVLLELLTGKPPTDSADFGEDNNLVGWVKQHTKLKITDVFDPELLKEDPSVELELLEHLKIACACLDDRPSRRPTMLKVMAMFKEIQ
# test_method_notes: thermal shift delta Tm vs DMSO control; higher = stronger stabilization (binding)
# condition_context: 12.5 µM; protein concentration 2 µM
recorded_endpoint: thermal shift delta Tm (°C)
Give your result in °C as a bare value.

Record excerpt, results attached:
COC(=O)Nc1ccc(-c2nc(N3CCOCC3)c3cnn(C4CCN(C(=O)OC)CC4)c3n2)cc1; 0.25
CN(C)Cc1cccc(N/C(=C2\C(=O)Nc3cc(C(N)=O)ccc32)c2ccccc2)c1; 0.86

--- query ---
Exercise: What thermal shift delta Tm value was documented for this compound, "CCCCCCCCCCCCCCCCOP(=O)([O-])OCC[N+](C)(C)C" ?
Solution: -6.22

###

# System: LOC_OS01G57100-cb003
# test_method_notes: thermal shift delta Tm vs DMSO control; higher = stronger stabilization (binding)
# condition_context: 12.5 µM; protein concentration 2 µM
Structures can show the parent of a compound that is named as a salt.
recorded_endpoint: thermal shift delta Tm (°C)
Unit °C implied. Number only.

Exercise: I would be grateful if you could share the reported thermal shift delta Tm for "C#Cc1cccc(Nc2ncnc3cc(OCCOC)c(OCCOC)cc23)c1" .
Solution: -0.31

Exercise: # lookup: thermal shift delta Tm of Nc1ncccc1-c1nc2ccc(-c3ccccc3)nc2n1-c1ccc(C2(N)CCC2)cc1 [Miransertib (ARQ 092) HCl]
Solution: -0.19

Exercise: I'd like to know its thermal shift delta Tm. The compound in question is "Cc1ccccc1-n1c(Cn2nc(-c3cccc(O)c3)c3c(N)ncnc32)nc2cccc(C)c2c1=O"
Solution: 1.41

Exercise: // query thermal shift delta Tm value for entry "COCC(=O)NC/C=C/c1ccc2ncnc(Nc3ccc(Oc4ccc(C)nc4)c(C)c3)c2c1"
Solution: -0.71

Exercise: Dear colleague, I am looking for the recorded thermal shift delta Tm of the following compound: "CNC(=O)c1cc(Oc2ccc3nc(N[C@@H]4CCCC[C@H]4O)sc3c2)ccn1"
Solution: 1.55

Exercise: Requested field: thermal shift delta Tm. Item: "O=C(Nc1c[nH]nc1-c1nc2ccc(CN3CCOCC3)cc2[nH]1)NC1CC1"
Solution: 0.91

Exercise: Return reported thermal shift delta Tm; argument: "Nc1nc(N)c2nc(-c3cccc(O)c3)c(-c3cccc(O)c3)nc2n1"
Solution: 2.01

Exercise: So what's the measured thermal shift delta Tm for this one? "CCNC(=O)C#Cc1ccc2c(C(=Nc3ccc(CN(C)C)cc3)c3ccccc3)c(O)[nH]c2c1"
Solution: -0.26

Exercise: # input compound: "C=CC(=O)Nc1cccc(Nc2nc(Nc3ccc(Oc4ccnc(C(=O)NC)c4)cc3)ncc2F)c1" ; wanted: its thermal shift delta Tm
Solution: 2.13
